Tgt: COX-1 (Homo sapiens, UniProt P23219)
Sequence (P23219 24-599): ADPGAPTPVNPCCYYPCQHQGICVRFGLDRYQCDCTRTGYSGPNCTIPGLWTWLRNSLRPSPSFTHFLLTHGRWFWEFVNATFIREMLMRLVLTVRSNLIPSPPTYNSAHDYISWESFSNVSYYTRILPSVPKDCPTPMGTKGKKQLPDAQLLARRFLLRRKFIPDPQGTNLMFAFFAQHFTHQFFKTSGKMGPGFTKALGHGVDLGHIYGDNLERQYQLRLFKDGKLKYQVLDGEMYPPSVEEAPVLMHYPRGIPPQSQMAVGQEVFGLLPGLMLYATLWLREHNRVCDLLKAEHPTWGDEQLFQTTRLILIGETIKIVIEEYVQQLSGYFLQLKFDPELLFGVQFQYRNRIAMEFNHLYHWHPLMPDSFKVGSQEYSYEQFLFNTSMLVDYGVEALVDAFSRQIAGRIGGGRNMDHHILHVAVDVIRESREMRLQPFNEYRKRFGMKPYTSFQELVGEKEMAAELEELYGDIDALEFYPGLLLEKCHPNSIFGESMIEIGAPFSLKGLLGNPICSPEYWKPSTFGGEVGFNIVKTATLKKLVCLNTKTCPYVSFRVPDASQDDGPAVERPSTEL
Outcome Measure: IC50 (µM)
Write the answer as a number in µM, unit excluded.

Measured on COX-1 (Homo sapiens, UniProt P23219), CS(=O)(=O)c1ccc(-c2cc(CF)nc(NCc3ccccc3)n2)cc1 [Example 1] has a documented IC50 of 17.7
